Biological target: T1, human CX3CR1 (human, UniProt P49238 1-355)
T1 construct: Overexpressed on CHO K1, Ba/F3 or HEK293T cells; also called huCX3CR1; hCX3CR1
T1 sequence: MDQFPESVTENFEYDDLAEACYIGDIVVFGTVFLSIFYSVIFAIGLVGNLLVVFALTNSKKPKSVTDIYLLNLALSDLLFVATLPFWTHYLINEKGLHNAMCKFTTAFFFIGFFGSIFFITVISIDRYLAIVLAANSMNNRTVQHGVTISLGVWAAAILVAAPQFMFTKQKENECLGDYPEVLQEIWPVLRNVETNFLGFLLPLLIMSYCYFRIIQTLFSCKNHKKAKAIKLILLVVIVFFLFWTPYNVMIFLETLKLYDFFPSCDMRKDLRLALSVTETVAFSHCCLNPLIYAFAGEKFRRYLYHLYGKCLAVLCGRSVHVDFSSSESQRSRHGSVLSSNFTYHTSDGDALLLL
Assay: flow cytometry on CHO K1 huCX3CR1 cells, 30 uM HSA
pEC50: −log10 of the molar value.
quantity_measured: pEC50

1) A041600042 (VHH, Trivalent ISVD construct (two anti-CX3CR1 ISVDs, one anti-albumin ISVD), C-terminal alanine included in the entry; also called 66B02_SO (E1D)-20GS-66B02_SO-20GS-ALB23002-A) DVQLVESGGGSVQPGGSLRLSCAASGSIFSSTAMAWYRQAPGKRRDLVAAINTVGVTKYADSVKGRFTISRDNAKNTVYLQMNSLRPEDTALYYCTSDPRRGWDTRYWGQGTLVTVSSGGGGSGGGGSGGGGSGGGGSEVQLVESGGGSVQPGGSLRLSCAASGSIFSSTAMAWYRQAPGKRRDLVAAINTVGVTKYADSVKGRFTISRDNAKNTVYLQMNSLRPEDTALYYCTSDPRRGWDTRYWGQGTLVTVSSGGGGSGGGGSGGGGSGGGGSEVQLVESGGGVVQPGGSLRLSCAASGFTFRSFGMSWVRQAPGKGPEWVSSISGSGSDTLYADSVKGRFTISRDNSKNTLYLQMNSLRPEDTALYYCTIGGSLSRSSQGTLVTVSSA
9.89
2) A041600025 (VHH, Trivalent ISVD construct (two anti-CX3CR1 ISVDs, one anti-albumin ISVD), C-terminal alanine included in the entry; also called 54A12_SO (E1D)-9GS-ALB23002-9GS-54A12_SO-A) DVQLVESGGGSVQPGGSLRLSCAASGSIFSSTAMAWYRQAPGKQRDLVAVISTVGITKYADSVKGRFTISRDNAKNTVYLQMNSLRPEDTALYYCTSDARRGWDTRYWGQGTLVTVSSGGGGSGGGSEVQLVESGGGVVQPGGSLRLSCAASGFTFRSFGMSWVRQAPGKGPEWVSSISGSGSDTLYADSVKGRFTISRDNSKNTLYLQMNSLRPEDTALYYCTIGGSLSRSSQGTLVTVSSGGGGSGGGSEVQLVESGGGSVQPGGSLRLSCAASGSIFSSTAMAWYRQAPGKQRDLVAVISTVGITKYADSVKGRFTISRDNAKNTVYLQMNSLRPEDTALYYCTSDARRGWDTRYWGQGTLVTVSSA
9.34
3) A041600031 (VHH, Trivalent ISVD construct (two anti-CX3CR1 ISVDs, one anti-albumin ISVD), C-terminal alanine included in the entry; also called 66B02_SO (E1D)-9GS-ALB23002-9GS-54A12_SO-A) DVQLVESGGGSVQPGGSLRLSCAASGSIFSSTAMAWYRQAPGKRRDLVAAINTVGVTKYADSVKGRFTISRDNAKNTVYLQMNSLRPEDTALYYCTSDPRRGWDTRYWGQGTLVTVSSGGGGSGGGSEVQLVESGGGVVQPGGSLRLSCAASGFTFRSFGMSWVRQAPGKGPEWVSSISGSGSDTLYADSVKGRFTISRDNSKNTLYLQMNSLRPEDTALYYCTIGGSLSRSSQGTLVTVSSGGGGSGGGSEVQLVESGGGSVQPGGSLRLSCAASGSIFSSTAMAWYRQAPGKQRDLVAVISTVGITKYADSVKGRFTISRDNAKNTVYLQMNSLRPEDTALYYCTSDARRGWDTRYWGQGTLVTVSSA
9.52
4) A041600085 (VHH, also called 307-9GS-ALB23002-9GS-307 (D1E)-A) DVQLVESGGGLVQPGGSLRLSCAASGSIFSSTAMAWYRQAPGKRRDLVAAISTVGVTKYADSVKGRFTISRDNSKNTVYLQMNSLRPEDTAVYYCTSDPRRGWDTRYWGQGTLVTVSSGGGGSGGGSEVQLVESGGGVVQPGGSLRLSCAASGFTFRSFGMSWVRQAPGKGPEWVSSISGSGSDTLYADSVKGRFTISRDNSKNTLYLQMNSLRPEDTALYYCTIGGSLSRSSQGTLVTVSSGGGGSGGGSEVQLVESGGGLVQPGGSLRLSCAASGSIFSSTAMAWYRQAPGKRRDLVAAISTVGVTKYADSVKGRFTISRDNSKNTVYLQMNSLRPEDTAVYYCTSDPRRGWDTRYWGQGTLVTVSSA
9.77
